Reference source: PubChem BioAssay (NCATS)

Test system: HaCat
Assay details: Cytotoxic Profiling of Annotated Libraries Using Quantitative High-Throughput Screening (AID 1296008); further: nearly all actives have a fitted effect of over 60% in size
Condition context: Five cell lines viability, CellTiter-Glo ATP luminescence, 48-72 h
Inconclusive results are not listed. The source made the active and inactive calls. The call rests on the fitted dose curve; in most records, active means well fitted inhibition curve with a large enough effect; inconclusive means small, poorly fitted or top-dose-only effect; inactive means flat fitted curve, though single readings scatter.
Possible outcomes: 1 for active, -1 for inactive

{"Compound": "CN(C)CCC(c1ccccc1)c1ccccn1 (stereo unspecified)", "Class assignment": -1}
{"Compound": "CC1(C)Cc2c(sc(NC(=S)NC(=O)c3ccccc3)c2C(=O)O)CO1", "Class assignment": -1}
{"Compound": "CC=C(C)C(=O)O[C@H]1C(C)=C[C@]23C(=O)[C@@H](C=C(CO)[C@@H](O)[C@]12O)[C@H]1[C@@H](C[C@H]3C)C1(C)C", "Class assignment": -1}
{"Compound": "COc1cc(NC(=O)c2ccc(-c3ccc(Cl)cc3)o2)cc(OC)c1", "Class assignment": -1}
{"Compound": "Clc1ccc(-c2nc3sccn3c2C=NOCc2ccc(Cl)c(Cl)c2)cc1", "Class assignment": -1}
{"Compound": "CCN1CCC[C@H]1CNC(=O)c1cc(S(N)(=O)=O)ccc1OC", "Class assignment": -1}
{"Compound": "NC(=O)NN=Cc1ccc([N+](=O)[O-])o1", "Class assignment": -1}
{"Compound": "O=C(O)CCC1CCC(c2cc(F)ccc2F)(S(=O)(=O)c2ccc(Cl)cc2)CC1 (stereo unspecified)", "Class assignment": -1}
{"Compound": "CN(C)CCC=C1c2ccccc2COc2ccc(CC(=O)O)cc21", "Class assignment": -1}
{"Compound": "O=C(Nc1c(Cl)cncc1Cl)c1ccc(OC(F)F)c(OCC2CC2)c1", "Class assignment": -1}
{"Compound": "CS(=O)(=O)N(Cc1ccco1)CC(O)Cn1c2ccccc2c2ccccc21 (stereo unspecified)", "Class assignment": -1}
{"Compound": "O=C(O)c1cc(O)c2c(c1)C(=O)c1cccc(O)c1C2=O", "Class assignment": -1}
{"Compound": "CC(C)(C)c1cc(C(=O)O)c(NC(=O)Nc2ccc3[nH]ncc3c2)s1", "Class assignment": -1}
{"Compound": "O=C(O)c1c(Cl)c(Cl)c(Cl)c(Cl)c1-c1c2cc(I)c(=O)c(I)c-2oc2c(I)c(O)c(I)cc12", "Class assignment": -1}
{"Compound": "CC1(C)S[C@H]2[C@H](NC(=O)[C@@H](N)c3ccc(O)cc3)C(=O)N2[C@@H]1C(=O)O", "Class assignment": -1}
{"Compound": "O=C(O)c1ccc(-c2cc3cccnc3c(-c3ccc4nonc4c3)n2)cc1", "Class assignment": -1}
{"Compound": "CCn1cc(C(=O)O)c(=O)c2ccc(C)nc21", "Class assignment": -1}
{"Compound": "COc1ccc(-c2coc3cc(O)ccc3c2=O)cc1", "Class assignment": -1}
{"Compound": "COc1cc2nc(-c3ccc(N4CCN(C)CC4)cc3)nc(NCCN3CCOCC3)c2cc1OC", "Class assignment": 1}
{"Compound": "CCc1ccc(OCc2ccccc2C(=O)Nc2ccc3nc(C)cc(N)c3c2)cc1", "Class assignment": 1}
{"Compound": "CN(C[C@@H]1COCCO1)S(=O)(=O)Nc1ccc2ccc3ncc(-c4cnn(C)c4)cc3c(=O)c2c1", "Class assignment": 1}

----------
System tested: Calcium and integrin-binding protein 1 (Homo sapiens) (UniProt Q99828)
Sequence (Q99828 whole entry, looked up): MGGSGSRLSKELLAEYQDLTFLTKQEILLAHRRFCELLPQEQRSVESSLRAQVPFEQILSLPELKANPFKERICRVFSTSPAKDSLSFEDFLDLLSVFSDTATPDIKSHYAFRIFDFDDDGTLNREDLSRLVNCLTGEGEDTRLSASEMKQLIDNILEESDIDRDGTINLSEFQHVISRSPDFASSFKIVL
Assay details: Primary qHTS for Identification of Calcium Integrin Binding Protein 1 (CIB1) Competitor (AID 1508620);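 further: GST tagged CIB1 binding a fluorescein labelled alphaIIb integrin peptide tracer; top concentration of the series differs between compounds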
Condition context: CIB1-GST / FITC-alphaIIb peptide fluorescence polarization; series mostly up to 57.7 µM
Results filed as inconclusive are left out. The source made the active and inactive calls. The call rests on the fitted dose curve; in most records, active means well fitted inhibition curve with a large enough effect; inconclusive means small, poorly fitted or top-dose-only effect; inactive means flat fitted curve, though single readings scatter.
Assay readout: outcome

{"Molecule": "Nc1ncnc2ccccc12", "Result": "inactive"}
{"Molecule": "O=c1ccn([C@@H]2O[C@H](CO)[C@H](O)[C@H]2O)c(=O)[nH]1", "Result": "inactive"}
{"Molecule": "Clc1ccc(-c2nc3sccn3c2C=NOCc2ccc(Cl)c(Cl)c2)cc1", "Result": "inactive"}
{"Molecule": "COc1ncc(-c2ccc3nccc(-c4ccnnc4)c3c2)cc1NS(=O)(=O)c1ccc(F)cc1F", "Result": "inactive"}
{"Molecule": "CC=CCC=CCCC(=O)[C@H]1O[C@@H]1C(N)=O", "Result": "inactive"}
{"Molecule": "O=c1cc(N2CCOCC2)oc2c(-c3cccc4c3sc3ccccc34)cccc12", "Result": "inactive"}
{"Molecule": "CC(C)(C)Cn1c(N)nc2ccc(-c3[nH]c(C(C)(C)C)nc3-c3ccc(F)cc3)nc21", "Result": "inactive"}
{"Molecule": "CC[C@]1(O)C[C@@H]2CN(CCc3c([nH]c4ccccc34)[C@@](C(=O)OC)(c3cc4c(cc3OC)N(C=O)[C@@H]3C45CCN4CC=C[C@](CC)([C@H]45)[C@@H](OC(C)=O)[C@]3(O)C(=O)OC)C2)C1 (stereo partly drawn)", "Result": "inactive"}
{"Molecule": "O=C(Nc1cc(Cl)cc2c1[nH]c1cnccc12)c1cccnc1", "Result": "inactive"}
{"Molecule": "COc1cc(N2CCC(N3CCN(C)CC3)CC2)ccc1Nc1ncc(Cl)c(Nc2ccccc2S(=O)(=O)C(C)C)n1", "Result": "inactive"}
{"Molecule": "CC[C@@H]1C=C(C)C[C@H](C)C[C@H](OC)[C@H]2O[C@@](O)(C(=O)C(=O)N3CCCC[C@@H]3C(=O)O[C@H](C(C)=C[C@@H]3CC[C@H](Cl)[C@H](OC)C3)[C@H](C)[C@@H](O)CC1=O)[C@H](C)C[C@H]2OC", "Result": "inactive"}
{"Molecule": "O=C1c2ccccc2-[n+]2ccc3c([nH]c4ccccc43)c21", "Result": "inactive"}
{"Molecule": "CC(=O)Oc1cc2c(s1)CCN(C(C(=O)C1CC1)c1ccccc1F)C2 (stereo not drawn)", "Result": "inactive"}
{"Molecule": "O=C1NC(=O)C(=Cc2cccc(C(F)(F)F)c2)S1", "Result": "inactive"}
{"Molecule": "Cc1ccc([C@@H]2O[C@H](CO)[C@@H](O)[C@H](O)[C@@H]2O)cc1Cc1ccc(-c2ccc(F)cc2)s1", "Result": "inactive"}
{"Molecule": "CCc1ccc(OCc2ccccc2C(=O)Nc2ccc3nc(C)cc(N)c3c2)cc1", "Result": "inactive"}
{"Molecule": "C[C@H](NC(=O)c1sccc1OCc1ccc(Cl)cc1)c1ccccc1", "Result": "inactive"}
{"Molecule": "CCC(=O)O[C@]1(C(=O)CO)CC[C@H]2[C@@H]3CCC4=CC(=O)CC[C@]4(C)[C@@H]3CC[C@@]21C", "Result": "inactive"}
{"Molecule": "NC(CO)(CO)CCc1ccc(Sc2cccc(OCc3ccccc3)c2)cc1Cl", "Result": "inactive"}
{"Molecule": "N[C@@]1(C(=O)O)CS(=O)(=O)[C@H]2[C@H](C(=O)O)[C@H]21", "Result": "inactive"}
{"Molecule": "C=C1C(=O)OC(CCCCCCCC)C1C(=O)O (stereo not drawn)", "Result": "inactive"}
{"Molecule": "Cc1ccc(Nc2cc(-c3cccc(N4C(=O)c5ccccc5C4=O)c3)ncn2)cc1NS(C)(=O)=O", "Result": "inactive"}
{"Molecule": "CN(C)CCC=C1c2ccccc2COc2ccc(CC(=O)O)cc21", "Result": "inactive"}
{"Molecule": "CC(C)(C)COc1ccc(-n2cc(C(=O)O)cn2)cc1C#N", "Result": "inactive"}
{"Molecule": "COc1cc2c(cc1OC)CN(CCc1ccc(NC(=O)c3cc(OC)c(OC)cc3NC(=O)c3cnc4ccccc4c3)cc1)CC2", "Result": "inactive"}
{"Molecule": "O=C(O)c1ccc(-c2c[nH]c3ncc(-c4ccccc4)cc23)cc1C1CCCC1", "Result": "inactive"}
{"Molecule": "COc1ccc2cccc(CCNC(C)=O)c2c1", "Result": "inactive"}
{"Molecule": "CN(C[C@@H]1COCCO1)S(=O)(=O)Nc1ccc2ccc3ncc(-c4cnn(C)c4)cc3c(=O)c2c1", "Result": "inactive"}
{"Molecule": "CCS(=O)(=O)N1CC(CC#N)(n2cc(-c3ncnc4[nH]ccc34)cn2)C1", "Result": "inactive"}
{"Molecule": "COc1cc(O)c2c(c1)C(=O)c1cc(C)cc(O)c1C2=O", "Result": "inactive"}
{"Molecule": "O=C1NC(=O)C(=Cc2ccc3nccnc3c2)S1", "Result": "inactive"}
{"Molecule": "CO[C@H]1C[C@@H]2CC[C@@H](C)[C@@](O)(O2)C(=O)C(=O)N2CCCC[C@@H]2C(=O)O[C@H]([C@H](C)C[C@@H]2CC[C@H](OP(C)(C)=O)[C@H](OC)C2)CC(=O)[C@H](C)C=C(C)[C@@H](O)[C@@H](OC)C(=O)[C@H](C)C[C@H](C)C=CC=CC=C1C", "Result": "inactive"}
{"Molecule": "CC(C(=O)O)c1ccc(-c2ccccc2)c(F)c1 (stereo not drawn)", "Result": "inactive"}
